Sourced from ChEMBL document CHEMBL1123779

test system: Mus musculus; assay: Suppressive blood schizonticidal antimalarial activity evaluated in the trophozoite-induced Plasmodium berghei infection in mice (Mus musculus) at a dose 160 mg/kg; format: functional
property_measured: Delta MST

{"columns": ["compound", "tested_system", "value_measured"],
 "data": [
  ["CCCCCCCCOc1c(OC)cc(NC(C)CCCN)c2ncccc12 (stereo not given)", "Mus musculus", 12.1],
  ["CCCCCCCCCCOc1c(OC)cc(NC(C)CCCN)c2ncccc12 (stereo not given)", "Mus musculus", 5.7],
  ["COc1cc(NC(C)CCCN)c2nc(C)ccc2c1 (stereo not given)", "Mus musculus", 8.3],
  ["CCCCCCOc1c(OC)cc(NC(C)CCCN)c2ncc(C)cc12 (stereo not given)", "Mus musculus", 7.6],
  ["COc1cc(NC(C)CCCN)c2nccc(C)c2c1 (stereo not given)", "Mus musculus", 9]
]}

###

tested on: Mus musculus; test: Suppressive blood schizonticidal antimalarial activity evaluated in the trophozoite-induced Plasmodium berghei infection in mice (Mus musculus) at a dose 160 mg/kg given as no. of toxic deaths; assay type: functional
Entries and their Toxic deaths

{"columns": ["compound", "Toxic deaths"],
 "data": [
  ["COc1cc(NC(C)CCCN)c2nccc(C)c2c1OC1CCCC1 (configuration not stated)", 5],
  ["COc1cc(NC(C)CCCN)c2nccc(C)c2c1OCCCCOc1ccccc1 (configuration not stated)", 5],
  ["CCCCCCOc1c(OC)cc(NC(C)CCCN)c2nccc(C)c12 (configuration not stated)", 3],
  ["CCCCCOc1c(OC)cc(NC(C)CCCN)c2ncccc12 (configuration not stated)", 4],
  ["CCCCC(C)Oc1c(OC)cc(NC(C)CCCN)c2ncc(C)cc12 (configuration not stated)", 5],
  ["CCOc1c(OC)cc(NC(C)CCCN)c2ncccc12 (configuration not stated)", 3],
  ["CCCCCOc1c(OC)cc(NC(C)CCCN)c2nccc(C)c12 (configuration not stated)", 4]
]}

###

system: Mus musculus; test: Suppressive blood schizonticidal antimalarial activity evaluated in the trophozoite-induced Plasmodium berghei infection in mice (Mus musculus) at a dose 20 mg/kg given as no. of cures; format: functional
true (1) if Cures is below 4. false (0) if not; exact matches included in false (0).

{"columns": ["compound", "class"],
 "data": [
  ["COc1cc(NC(C)CCCN)c2nccc(C)c2c1OCCCCOc1ccccc1 (stereo unspecified)", "false (0)"],
  ["CCCOc1c(OC)cc(NC(C)CCCN)c2nccc(C)c12 (stereo unspecified)", "true (1)"],
  ["CCCCCCCCCCOc1c(OC)cc(NC(C)CCCN)c2nccc(C)c12 (stereo unspecified)", "true (1)"],
  ["COc1cc(NC(C)CCCN)c2nccc(C)c2c1OC1CCCC1 (stereo unspecified)", "true (1)"],
  ["CCCCCCOc1c(OC)cc(NC(C)CCCN)c2nccc(C)c12 (stereo unspecified)", "false (0)"],
  ["CCCCC(C)Oc1c(OC)cc(NC(C)CCCN)c2ncc(C)cc12 (stereo unspecified)", "true (1)"],
  ["CCCCCCCCCOc1c(OC)cc(NC(C)CCCN)c2nccc(C)c12 (stereo unspecified)", "true (1)"],
  ["CCCCOc1c(OC)cc(NC(C)CCCN)c2nccc(C)c12 (stereo unspecified)", "false (0)"],
  ["CCCCCCOc1c(OC)cc(NC(C)CCCN)c2nc(C)cc(C)c12 (stereo unspecified)", "true (1)"],
  ["CCCCCCCOc1c(OC)cc(NC(C)CCCN)c2nccc(C)c12 (stereo unspecified)", "false (0)"],
  ["COCCCCCCOc1c(OC)cc(NC(C)CCCN)c2nccc(C)c12 (stereo unspecified)", "true (1)"],
  ["CCCCCCCCOc1c(OC)cc(NC(C)CCCN)c2nccc(C)c12 (stereo unspecified)", "false (0)"]
]}
